# System: CD8+ T cells
# EXPERIMENT DESCRIPTION: In vitro T-cell priming assay with aAPCs (in vitro immunogenicity for MHC class I presented peptides)
# Format: cell-based, human
# COND: in vitro immunogenicity, HLA B*44
READOUT LABEL: Wells positive [%]

{"SUBSTANCE": "329 (NEHPSNNW; listed as Homo sapiens) [compound 329]", "REPORTED RESULT": "“+” (<20% = +)"}
{"SUBSTANCE": "325 (QEQDVDLVQKY; listed as Homo sapiens) [compound 325]", "REPORTED RESULT": "“+” (<20% = +)"}
{"SUBSTANCE": "342 (HEFSSPSHL; listed as Homo sapiens) [compound 342]", "REPORTED RESULT": "“+” (<20% = +)"}
{"SUBSTANCE": "322 (KEVDPAGHSY; listed as Homo sapiens) [compound 322]", "REPORTED RESULT": "“++” (20%-49% = ++)"}
{"SUBSTANCE": "330 (KEGDLGGKQW; listed as Homo sapiens) [compound 330]", "REPORTED RESULT": "“+” (<20% = +)"}

Hi, could you look up Wells positive [%] for each item in my list?
1. 476 (AEEEIMKKI; listed as Homo sapiens) [compound 476]
2. 328 (FEYDFLLQRI; listed as Homo sapiens) [compound 328]
3. 323 (SEFMQVIF; listed as Homo sapiens) [compound 323]
4. 339 (SEPALLHSW; listed as Homo sapiens) [compound 339]
5. 320 (MEVDPIGHVYIF; listed as Homo sapiens) [compound 320]
6. 338 (SEGSEPALLHSW; listed as Homo sapiens) [compound 338]
7. 334 (AEDEPAAAHL; listed as Homo sapiens) [compound 334]

A.
“+” (<20% = +)
“+” (<20% = +)
“+” (<20% = +)
“++” (20%-49% = ++)
“+” (<20% = +)
“+” (<20% = +)
“+” (<20% = +)
